Reference for the values: patent US20110123470A1

test system: Malassezia furfur; experiment: Antifungal activity assay (MIC) in PDA media; format: cell-based; details: PDA media containing 0.2% yeast extract
The entries below are paired with their reported M. furfur (MIC).

| Molecule | Target of assay | M. furfur (MIC) |
| --- | --- | --- |
| O=C1C=CCO1 [2(5H)-furanone] | Malassezia furfur | >10 µg |
| CC1=CCC(=O)O1 [5-methyl-2(3H)-furanone] | Malassezia furfur | 5 to 7 µg |
| CC1C=CC(=O)O1 (centres unmarked) [5-methyl-2(5H)-furanone] | Malassezia furfur | 5 to 7 µg |

// query Item under review: CC1=CCOC1=O [3-methy1-2(5H)-furanone] . Reported M. furfur (MIC)?
// result 5 to 6 µg

// query Which M. furfur (MIC) value belongs to CCCCCCC1C=CC(=O)O1 (centres unmarked) [P1639C, 5-hexylfuran-2(5H)-one] ?
// result <1 µg
